- TARGET OR TEST SYSTEM: UniProt:P52480
- Sequence (P52480 whole entry): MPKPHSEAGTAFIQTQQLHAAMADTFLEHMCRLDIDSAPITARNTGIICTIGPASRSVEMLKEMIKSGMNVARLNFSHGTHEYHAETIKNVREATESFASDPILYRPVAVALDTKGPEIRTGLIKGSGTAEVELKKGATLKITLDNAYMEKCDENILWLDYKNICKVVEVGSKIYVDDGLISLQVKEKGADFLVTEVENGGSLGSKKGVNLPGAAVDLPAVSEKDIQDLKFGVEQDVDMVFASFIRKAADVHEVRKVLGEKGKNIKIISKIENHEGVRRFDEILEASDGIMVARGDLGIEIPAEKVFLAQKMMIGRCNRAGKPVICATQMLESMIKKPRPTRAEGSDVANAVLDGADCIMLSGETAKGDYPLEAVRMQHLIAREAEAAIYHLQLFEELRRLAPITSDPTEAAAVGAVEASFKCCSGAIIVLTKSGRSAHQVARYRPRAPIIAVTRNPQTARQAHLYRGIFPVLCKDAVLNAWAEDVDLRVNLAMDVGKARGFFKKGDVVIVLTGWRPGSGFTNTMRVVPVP
- PROTOCOL SUMMARY: Binding affinity to PKM2 in mouse BV-2 cells by Western blot analysis

{"COMPOUND": "C=C(C)[C@@H]1CCC(C)=C[C@H]1c1c(O)cc(C(C)n2nccn2)cc1O (stereo partly specified)", "Kd": "2.2 µM"}

====

- PROTOCOL SUMMARY: Tmax in BALB/c mouse brain at 10 mg/kg, po measured upto 4 hrs by mS-HPLC analysis
- Format: ADME, organism-based

{"MOLECULE": "C=C(C)[C@@H]1CCC(C)=C[C@H]1c1c(O)cc(C(C)n2nccn2)cc1O (stereo partly specified)", "Tmax": "30 min"}
